Documented IC50 across a set of sequences
biological target: HLA-A0301 (Homo sapiens, UniProt P04439); construct: endogenous in cells; experiment: Competition-based cellular peptide binding assay, HLA-A0301; conditions: Table 2; mild-acid-treated B-LCLs, 150 nM fluorescent reference peptide […], overnight 4°C, flow cytometry; mean of two independent experiments
Ends that are not written are not given here.
// return the numeric value with its unit appended

Below are worked cases with known answers.
Inquiry: Give the measured IC50 of `RMATPLLMQA` .
Reply text: 2.45 µM

Inquiry: Give the measured IC50 of RMATPLLMQAL [RMATPLLMQAL] .
Reply text: 4.28 µM

Inquiry: Give the measured IC50 of RMATPLLMQALPM [Peptide 3] .
Reply text: 3.35 µM

Please find the next sequence below.
Inquiry: Give the measured IC50 of `KMRMATPLL` .
Reply text: 6.43 µM
